Recorded fold change (FC) values for a group of compounds are listed next.
- Assay Summary: Induction of anti-CD3/CD28 antibodies-stimulated human T cell activation at 0.3 uM assessed fold increase in IL-2 secretion measured by ELISA assay
- Type: functional, T cell line

{"columns": ["Compound", "fold change (FC)"],
 "data": [
  ["Cn1cnnc1CC1(c2cccc(N3Cc4c(cccc4C(F)(F)F)C3=O)c2)CC1", 2.51],
  ["Cn1cnnc1CC1(c2cccc(N3Cc4c(cc(CN5[C@@H]6CC[C@H]5C[C@H](F)C6)cc4C(F)(F)F)C3=O)c2)COC1", 5],
  ["C[C@H](Cc1nncn1C)c1cccc(N2Cc3c(cc(CN4CC(O)C(F)(F)C4)cc3C(F)(F)F)C2=O)c1 (some centres not stated)", 2.51],
  ["Cn1cnnc1CC1(c2cccc(NC(=O)c3cc(C4CC4)nc4ccnn34)c2)COC1", 1.01],
  ["Cn1cnnc1C(F)(F)[C@](C)(F)c1cccc(N2Cc3c(cc(CN4CC[C@H](C#N)C4)cc3C(F)(F)F)C2=O)c1", 5],
  ["C[C@H](Cc1nncn1C)c1cccc(NC(=O)c2[nH]nc3c2CCCC3)c1", 1.01],
  ["CNS(=O)(=O)c1cc(C(=O)Nc2cccc([C@H](C)Cc3nncn3C)c2)nc(C(F)(F)F)c1", 1.01],
  ["Cn1cnnc1CC1(c2cccc(N3Cc4c(cc(CN5CCC6(CC6)C(F)(F)C5)cc4C(F)(F)F)C3=O)c2)COC1", 2.51],
  ["C[C@H](Cc1nncn1C)c1cccc(N2Cc3c(Br)cccc3C2=O)c1", 2.51],
  ["C[C@H](Sc1nncn1C)c1cccc(NC(=O)c2cc3cc(OCc4ccn[nH]4)ccc3cn2)c1", 1.01]
]}

====

- Assay Summary: Induction of anti-CD3/CD28 antibodies-stimulated human T cell activation at 0.3 uM assessed fold increase in CD25 expression measured by ELISA assay
- Format: functional, T cell line

{"columns": ["Compound", "fold change (FC)"],
 "data": [
  ["C[C@H](Cc1nncn1C)c1cccc(N2Cc3c(cc([C@H](C)N4CC(O)C4)cc3C(F)(F)F)C2=O)c1", 1.01],
  ["C[C@H](Cc1nncn1C)c1cccc(N2Cc3c(cc([C@@H](C)N4CC[C@H](F)C4)cc3C(F)(F)F)C2=O)c1", 1.01],
  ["C[C@H](Cc1nncn1C)c1cccc(N2Cc3c(cc([C@@H]4CCCNC4)cc3C(F)(F)F)C2=O)c1", 1.01],
  ["C[C@H](Cc1nncn1C)c1cccc(NC(=O)c2cc(C(=O)N3CC[C@](C)(O)C3)ccn2)c1", 1.51],
  ["CN(c1cc2c(c(C(F)(F)F)c1)CN(c1cccc([C@@](C)(F)C(F)(F)c3nncn3C)c1)C2=O)[C@H]1CNC[C@H]1F", 1.01],
  ["Cc1conc1CC1(c2cccc(NC(=O)c3cc(CN4CCC5(CC5)C4)nc(C4CC4)n3)c2)COC1", 1.31],
  ["Cn1cnnc1CC1(c2cccc(N3Cc4c(cc(CN5CCCCC(F)C5)cc4C(F)(F)F)C3=O)c2)COC1 (configuration not stated)", 1.31],
  ["Cc1cc(C(=O)Nc2cccc([C@]3(Cc4nncn4C)CCOC3)c2)nc(C2CC2)n1 (single isomer, unassigned)", 1.01],
  ["Cn1cnnc1CC1(c2cccc(N3Cc4c(cc(C(O)c5ccccc5)cc4C(F)(F)F)C3=O)c2)COC1 (configuration not stated)", 1.31],
  ["C[C@H](Sc1nncn1C)c1cccc(NC(=O)c2ccnc(C(F)(F)F)n2)c1", 1.01],
  ["C[C@H](Cc1nncn1C)c1cccc(NC(=O)c2cc3cc(N4CCN(C)C(=O)C4)ccc3cn2)c1.O=C(O)C(F)(F)F", 1.31],
  ["Cn1cnnc1CC1(c2cccc(NC(=O)c3csc(C4CC4)n3)c2)COC1", 1.01],
  ["Cn1cnnc1CC1(c2cccc(NC(=O)c3nc(C(F)(F)F)cs3)c2)COC1", 1.01],
  ["Cc1[nH]ncc1-c1cc2c(c(C(F)(F)F)c1)CN(c1cccc([C@H](C)Cc3nncn3C)c1)C2=O", 1.31],
  ["C[C@H](Cc1nncn1C)c1cc(NCCO)nc(N2Cc3c(cccc3C(F)(F)F)C2=O)c1", 1.01],
  ["C[C@H](c1cc2c(c(C(F)(F)F)c1)CN(c1cccc(C3(Cc4nncn4C)COC3)c1)C2=O)N1CC[C@H](F)C1", 1.31]
]}
